This section presents compounds with their documented pIC50 values.
# Assayed Target: UniProt:Q9NBA7
# Assay Comment: Inhibition of Plasmodium falciparum recombinant falcipain-3
pIC50: −log10 of the molar value.
Recorded Metric: pIC50

{"Compound Smiles": "O=C(O)c1ccccc1N/N=C/c1ccc(/C=N/Nc2ccccc2C(=O)O)cc1", "Meas Value": 5.31}
{"Compound Smiles": "O=C(Cn1nnc(-c2ccccc2)n1)N/N=C1\\C(=O)Nc2ccccc21", "Meas Value": "< 4.30"}
{"Compound Smiles": "N#CCC(=O)N/N=C\\c1ccc(OCC(=O)Nc2ccc(F)cc2)cc1", "Meas Value": "< 4.30"}
{"Compound Smiles": "O=C(CSc1ccc2ccccc2n1)N/N=C/c1ccc(O)cc1O", "Meas Value": "< 4.30"}
{"Compound Smiles": "CCCS(=O)(=O)N1CCN(S(=O)(=O)c2ccc3ccccc3c2)CC1", "Meas Value": 4.53}
{"Compound Smiles": "O=C(NCc1ccc(/C=c2/sc3n(c2=O)CCN=3)o1)C(=O)Nc1ccccc1", "Meas Value": 4.93}
{"Compound Smiles": "COC(=O)c1ccccc1NC(=O)COC(=O)CSc1nc(C)cc(C)n1", "Meas Value": 4.92}
{"Compound Smiles": "CCOP(=O)(CC(=O)NNC(=O)Nc1cccc2ccccc12)OCC", "Meas Value": "< 4.30"}
{"Compound Smiles": "O=C(CNC(=O)[C@@H]1COc2ccccc2O1)N/N=C/c1cccs1", "Meas Value": "< 4.30"}
{"Compound Smiles": "OC[C@@H](O)/C=N/Nc1nc(Nc2ccccc2)nc(Nc2ccccc2)n1", "Meas Value": "< 4.30"}
{"Compound Smiles": "Oc1ccc(Nc2nc(-c3cccnc3)cs2)cc1", "Meas Value": "< 4.30"}

====

# Assayed Target: Falcipain 2 (Plasmodium falciparum, UniProt Q9N6S8)
# Sequence (Q9N6S8 whole entry): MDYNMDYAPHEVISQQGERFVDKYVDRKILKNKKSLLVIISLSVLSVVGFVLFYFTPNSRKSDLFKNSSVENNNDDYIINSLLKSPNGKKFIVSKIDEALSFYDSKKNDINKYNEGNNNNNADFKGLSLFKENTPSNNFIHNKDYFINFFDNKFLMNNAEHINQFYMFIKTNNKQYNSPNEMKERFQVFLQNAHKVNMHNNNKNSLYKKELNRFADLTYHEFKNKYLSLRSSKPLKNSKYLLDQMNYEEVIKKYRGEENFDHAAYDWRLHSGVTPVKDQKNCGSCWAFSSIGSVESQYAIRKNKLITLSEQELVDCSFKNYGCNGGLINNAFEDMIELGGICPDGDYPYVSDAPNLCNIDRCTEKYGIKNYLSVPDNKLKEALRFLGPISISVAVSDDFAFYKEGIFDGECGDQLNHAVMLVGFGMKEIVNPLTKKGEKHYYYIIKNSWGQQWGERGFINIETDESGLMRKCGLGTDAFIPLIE
# Assay Comment: Inhibition of Plasmodium falciparum recombinant falcipain-2
pIC50: −log10 of the molar value.

{"Compound Smiles": "OC[C@@H](O)/C=N/Nc1nc(Nc2ccccc2)nc(Nc2ccccc2)n1", "Inequality Symbol": "<", "pIC50": 4.30}
{"Compound Smiles": "N#CCC(=O)N/N=C\\c1ccc(OCC(=O)Nc2ccc(F)cc2)cc1", "Inequality Symbol": "=", "pIC50": 5.24}
{"Compound Smiles": "O=C(CSc1ccc2ccccc2n1)N/N=C/c1ccc(O)cc1O", "Inequality Symbol": "=", "pIC50": 4.20}
{"Compound Smiles": "C/C(=N\\NS(=O)(=O)c1ccc(C)cc1)c1c(O)c2ccccc2oc1=O", "Inequality Symbol": "=", "pIC50": 5.41}
{"Compound Smiles": "O=C(O)c1ccccc1N/N=C/c1ccc(/C=N/Nc2ccccc2C(=O)O)cc1", "Inequality Symbol": "=", "pIC50": 6.00}
{"Compound Smiles": "CCCS(=O)(=O)N1CCN(S(=O)(=O)c2ccc3ccccc3c2)CC1", "Inequality Symbol": "=", "pIC50": 4.91}
{"Compound Smiles": "OC[C@H](O)/C=N/Nc1nc(Nc2ccccc2)nc(N2CCCCC2)n1", "Inequality Symbol": "=", "pIC50": 4.26}
{"Compound Smiles": "Oc1ccc(/C=N/c2ccc(/N=C/c3ccc(O)cc3O)c(Cl)c2)c(O)c1", "Inequality Symbol": "=", "pIC50": 5.68}
{"Compound Smiles": "Oc1cccc(/C=N\\c2cccc3c(/N=C/c4cccc(O)c4O)cccc23)c1O", "Inequality Symbol": "=", "pIC50": 5.34}
{"Compound Smiles": "O=C(Nc1cccc(O)c1)c1cccc(S(=O)(=O)Nc2cccc(O)c2)c1", "Inequality Symbol": "<", "pIC50": 4.30}
{"Compound Smiles": "COC(=O)c1ccccc1NC(=O)COC(=O)CSc1nc(C)cc(C)n1", "Inequality Symbol": "=", "pIC50": 5.21}
{"Compound Smiles": "O=C(N/N=C/c1ccccc1O)c1cccc(C(=O)N/N=C/c2ccccc2O)n1", "Inequality Symbol": "=", "pIC50": 5.15}
{"Compound Smiles": "O=C(CSc1nnnn1-c1ccccc1)Nc1ccc(-n2cnnn2)cc1", "Inequality Symbol": "=", "pIC50": 5.12}
{"Compound Smiles": "O=C(NCc1ccc(/C=c2/sc3n(c2=O)CCN=3)o1)C(=O)Nc1ccccc1", "Inequality Symbol": "=", "pIC50": 5.21}

====

# Assayed Target: Cysteine protease falcipain-3 (Plasmodium falciparum, UniProt Q9NBA7)
# Sequence (Q9NBA7 whole entry): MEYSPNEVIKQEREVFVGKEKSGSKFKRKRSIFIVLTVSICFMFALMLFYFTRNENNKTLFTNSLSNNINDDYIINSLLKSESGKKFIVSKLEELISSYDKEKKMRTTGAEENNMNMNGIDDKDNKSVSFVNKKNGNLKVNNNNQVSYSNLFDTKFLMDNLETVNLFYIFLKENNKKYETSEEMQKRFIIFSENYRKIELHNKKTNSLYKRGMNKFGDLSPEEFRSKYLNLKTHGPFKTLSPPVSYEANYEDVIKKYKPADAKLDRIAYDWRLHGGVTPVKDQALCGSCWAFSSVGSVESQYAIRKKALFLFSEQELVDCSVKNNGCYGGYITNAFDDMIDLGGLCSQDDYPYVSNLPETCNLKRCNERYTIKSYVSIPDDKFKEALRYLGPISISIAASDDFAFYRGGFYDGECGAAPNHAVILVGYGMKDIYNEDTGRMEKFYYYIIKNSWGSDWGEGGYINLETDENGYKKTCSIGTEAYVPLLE
# Assay Comment: Inhibition of Plasmodium falciparum recombinant falcipain-3

{"Compound Smiles": "O=C(Nc1cccc(O)c1)c1cccc(S(=O)(=O)Nc2cccc(O)c2)c1", "IC50": "> 50 µM"}
{"Compound Smiles": "CCCc1cc(=O)[nH]c(SCC(=O)Nc2ccccc2)n1", "IC50": "> 50 µM"}
{"Compound Smiles": "O=C(Cc1nnc(NC(=O)c2ccccc2)s1)N/N=C\\c1ccc(O)c(O)c1", "IC50": "> 50 µM"}
